Experiment: Permeability in MDCK-MDR1 cells
Assay type: ADME, cell-based, Canis lupus familiaris
Settings: dog, MDCK-MDR1; read-out: permeability
REPORTED_ENDPOINT: Papp (×10⁻⁶ cm/s)
All answers are understood in ×10⁻⁶ cm/s, so give the number only.

# return recorded Papp for input "CCS(=O)(=O)Nc1ccc(OCCOCCOCCOCCOc2ccc(NS(=O)(=O)CC)cc2-c2cn(C)c(=O)c3ccccc23)c(-c2cn(C)c(=O)c3ccccc23)c1"
15

Query Papp for "CCS(=O)(=O)Nc1cccc(-c2cn(C)c(=O)c3ccccc23)c1"
0.13

====

Target: Bromodomain-containing protein 4 (Homo sapiens)
Assay: Inhibition of BRD4 in human MM1.S cells assessed as reduction in c-MYC level after 6 hrs by Western blot analysis
pIC50: −log10 of the molar value.
REPORTED_ENDPOINT: pIC50

Write down measured pIC50 (Bromodomain-containing protein 4 (Homo sapiens)) for this compound. "Cn1cc(-c2cccc(N3CCCC3=O)c2)c2ccccc2c1=O"
< 6.00
